Provide the recorded Ki for the entries that follow.
Molecular target: T1, plasmin (human, UniProt P00747)
T1 chain: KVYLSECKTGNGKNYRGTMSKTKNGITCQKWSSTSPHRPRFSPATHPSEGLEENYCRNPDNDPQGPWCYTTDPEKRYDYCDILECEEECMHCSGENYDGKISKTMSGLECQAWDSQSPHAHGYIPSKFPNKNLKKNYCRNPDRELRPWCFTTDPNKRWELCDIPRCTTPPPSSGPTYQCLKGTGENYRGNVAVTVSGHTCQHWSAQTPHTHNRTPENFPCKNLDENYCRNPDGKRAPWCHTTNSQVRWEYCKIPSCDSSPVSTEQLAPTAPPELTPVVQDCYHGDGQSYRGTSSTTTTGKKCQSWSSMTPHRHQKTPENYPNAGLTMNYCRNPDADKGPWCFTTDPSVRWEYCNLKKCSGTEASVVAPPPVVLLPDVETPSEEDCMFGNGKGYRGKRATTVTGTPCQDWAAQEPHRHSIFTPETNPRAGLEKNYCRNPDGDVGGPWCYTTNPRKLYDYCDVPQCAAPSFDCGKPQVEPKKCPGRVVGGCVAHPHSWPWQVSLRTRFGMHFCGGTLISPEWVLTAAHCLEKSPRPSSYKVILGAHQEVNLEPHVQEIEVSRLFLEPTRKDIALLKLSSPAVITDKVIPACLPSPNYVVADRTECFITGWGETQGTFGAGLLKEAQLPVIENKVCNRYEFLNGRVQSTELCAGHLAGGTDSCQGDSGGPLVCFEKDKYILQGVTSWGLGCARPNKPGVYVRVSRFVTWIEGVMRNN
One number for each entry, in nM.

Binder	Unit tag	Measured
KD1 wild-type (protein) DAAQEPTGNNAEICLLPLDYGPCRALLLRYYYDRYTQSCRQFLYGGCEGNANNFYTWEACDDACWRIEKVPKV	nM	7.5
KD1 R24K/L26R (protein) DAAQEPTGNNAEICLLPLDYGPCKARLLRYYYDRYTQSCRQFLYGGCEGNANNFYTWEACDDACWRIEKVPKV	nM	1.5

Please find the next binder below.
Which Ki value belongs to KD1 R24K (protein) DAAQEPTGNNAEICLLPLDYGPCKALLLRYYYDRYTQSCRQFLYGGCEGNANNFYTWEACDDACWRIEKVPKV ?
4.6
